# tested_on: Mitogen-activated protein kinase 14 (Homo sapiens)
# Sequence (Q16539 whole entry): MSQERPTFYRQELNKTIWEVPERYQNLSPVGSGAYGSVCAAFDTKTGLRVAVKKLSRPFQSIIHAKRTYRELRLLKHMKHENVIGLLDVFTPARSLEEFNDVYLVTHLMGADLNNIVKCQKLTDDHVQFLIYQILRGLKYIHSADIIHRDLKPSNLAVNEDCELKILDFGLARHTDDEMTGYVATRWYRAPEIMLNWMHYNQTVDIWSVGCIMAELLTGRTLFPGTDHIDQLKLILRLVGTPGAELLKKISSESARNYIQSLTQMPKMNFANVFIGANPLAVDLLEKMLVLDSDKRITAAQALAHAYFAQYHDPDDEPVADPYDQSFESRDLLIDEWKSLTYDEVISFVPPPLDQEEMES
# measurement_protocol: Inhibition of Mitogen-activated protein kinase p38 alpha
value_kind: pIC50
Quick note: pIC50 means taking -log10 of the concentration in moles per liter.

## Task Determine from records and report pIC50 for C[C@H](O)CNc1cc(-c2[nH]c3cccnc3c2-c2ccc(F)cc2)ccn1
## Result 8.89

====

# Test system: Rattus norvegicus
# measurement_protocol: AUC at a dose of 10 mg/Kg administered to female hanover-wistar rat per orally
# Format: ADME, organism-based, Plasma
# condition_parameters: in vivo, po
value_kind: AUC
Record the result as a number with its unit.

## Task // fetch AUC; item: C[C@@H](O)CNc1cc(-c2[nH]c3cccnc3c2-c2ccc(F)cc2)ccn1 ; system: Rattus norvegicus
## Result 8.4 µM·h

Recorded values, source ChEMBL document CHEMBL1145138.
